Target: human polyclonal IgG (human)
Assay: batch adsorption isotherm of IgG on peptide-WorkBeads resin, BCA of unbound IgG, Langmuir fit (KD(Solid))
No end group written: not given here.
quantity kind: pKd
Numbers only, as −log10 of the molar value.

- binder: "WQRHGIC(iodoacetyl‑activated TREN WorkBeads resin) (not fully specified) [WQRHGIC (SEQ ID NO:30)-WorkBeads]"
  recorded value: 5.49

We now examine a further binder.
Please give the documented pKd of MWRGWQC(iodoacetyl‑activated TREN WorkBeads resin) (not fully specified) [MWRGWQC (SEQ ID NO:31)-WorkBeads]
5.09

Origin of values: patent US20230399358A1
